# System: parasites (ring stage, in human red blood cell culture)
# Measurement Protocol: Parasite LDH growth assay (antiparasite potency, Parasite Assay)
# Type: cell-based, Plasmodium falciparum
# Stated Conditions: Plasmodium falciparum, Erythrocyte, 72 h, 0.7% rings, 2% haematocrit, 72 hours at 37° C., LDH readout of parasite growth
Measured Quantity: pEC50
Quick note: pEC50 values are minus log10 of concentrations in mol/L.

Record excerpt, results attached:
COC1COc2ccc(C(=O)N[C@@H]3c4ccccc4OC[C@]3(C)O)cc2C1N1C(=N)NC(C)(C)CC1=O (stereo partly drawn)	7.30
CCC1(CC)CC(=O)N([C@@H]2CCOc3ccc(C(=O)N[C@@H]4c5ccccc5OC(C)(C)[C@H]4O)nc32)C(=N)N1 [Example 30A]	9.10

Turning to the following compound.
-- ask What value of pEC50 has been recorded for this entry: CC[C@]1(C)CC(=O)N([C@@H]2CCOc3ccc(C(=O)N[C@H]4C[C@H](COC(F)F)Oc5ccccc54)cc32)C(=N)N1
-- reply 8.54

---

# Tested on: parasites (ring stage, in human red blood cell culture)
# Measurement Protocol: Parasite LDH growth assay (antiparasite potency, Parasite Assay)
# Assay type: cell-based, Plasmodium falciparum
# Stated Conditions: Plasmodium falciparum, Erythrocyte, 72 h, 0.7% rings, 2% haematocrit, 72 hours at 37° C., LDH readout of parasite growth
EC50 listing for selected compounds.
Could you give the number and then its unit, please?

-- ask What value of EC50 has been recorded for this entry: CC1(C)CC(=O)N([C@H]2CCS(=O)(=O)c3ccc(C(=O)N[C@H]4C[C@H](C(F)(F)F)Oc5ccccc54)cc32)C(=N)N1
-- reply 259 nM

-- ask Another compound to check: CCC1(CC)CC(=O)N([C@@H]2CCOc3ccc(C(=O)N[C@@H]4c5cc(Cl)ccc5OC[C@@]4(C)O)cc32)C(=N)N1
-- reply 2.6 nM

-- ask Another compound to check: CCC1(CC)CC(=O)N([C@@H]2CCCOc3ccc(C(=O)N[C@@H]4c5ccccc5C[C@H]4O)cc32)C(=N)N1
-- reply 1.6 nM

-- ask Another compound to check: CC1(C)CC(=O)N([C@@H]2CC(C)(C)Oc3ccc(C(=O)N[C@@H]4c5ccccc5C[C@H]4O)cc32)C(=N)N1 [Example 48A]
-- reply 37.5 nM

-- ask Another compound to check: CC[C@]1(C)CC(=O)N([C@@H]2CCOc3ccc(C(=O)N[C@@H]4c5cc(Cl)ccc5OC[C@H]4O)cc32)C(=N)N1
-- reply 8.6 nM

---

# Tested on: parasites (ring stage, in human red blood cell culture)
# Measurement Protocol: Parasite LDH growth assay (antiparasite potency, Parasite Assay)
# Format: cell-based, Plasmodium falciparum
# Stated Conditions: Plasmodium falciparum, Erythrocyte, 72 h, 0.7% rings, 2% haematocrit, 72 hours at 37° C., LDH readout of parasite growth
pEC50: −log10 of the molar value.
Classification field: met = pEC50 at or over 9; not met = pEC50 under 9.

-- ask Form field: pEC50 at least 9? Entry: CC1(C)CC(=O)N([C@@H]2CCOc3ccc(C(=O)N[C@@H]4c5ccccc5C[C@H]4O)cc32)C(=N)N1 [Example 61A]
-- reply not met

-- ask Another compound to check: CCC1(CC)CC(=O)N([C@@H]2CCc3ccc(C(=O)N[C@@H]4c5ccccc5OC(C)(C)[C@H]4O)cc32)C(=N)N1
-- reply met

-- ask Another compound to check: CC1(C)CC(=O)N([C@@H]2CCS(=O)(=O)c3ccc(C(=O)N[C@H]4CC(C)(C)Oc5ccccc54)cc32)C(=N)N1
-- reply not met

-- ask Another compound to check: CCC1(CC)CC(=O)N([C@@H]2CCOc3ccc(C(=O)N[C@@H]4C[C@@H](C(F)(F)F)Oc5ccccc54)cc32)C(=N)N1
-- reply not met

-- ask Another compound to check: CCC1(CC)CC(=O)N([C@@H]2CCOc3ccc(C(=O)N[C@@H]4c5ccccc5OC[C@H]4OC)cc32)C(=N)N1
-- reply not met

-- ask Another compound to check: CC[C@]1(C)CC(=O)N([C@@H]2CCOc3ccc(C(=O)N[C@@H]4C[C@@H](COC(F)F)Oc5ccccc54)cc32)C(=N)N1
-- reply not met
